Where do the numbers come from? From patent US20250223342A1.

- targetOrTestSystem: T1, human serum albumin (human, UniProt P02768 25-609)
- T1 construct: also called HSA
- testProtocol: SPR (Biacore), VHH clone, pH 5.5

binder | koff (s⁻¹)
9E10 (VHH) VHH: QLQVVESGGGLVQAGGSLRLSCTTSGRAFIGYAMGWFRQAPGKEREFVAAISWFAGDTTDYANSVKGRFTISRDNAKNTVYLQMNSLKPEDTAVYVCAASSARPLSSRSDEYHYWGQGTQVTVSS | 0.00246
2B03 (VHH) VHH: QLQLVESGGGLVQAGGSLRLSCAASGRAISSYVMAWFRQAPGKEREFVTSINWSGGSTYYAHSVKGRFTISRDNAKNTVYLQMNTLKPEDTAVYYCAADLYGLGYEVMSYDYWGQGTQVTVSS | 0.0029
2C10 (VHH) VHH: QLQLVESGGGLVQAGGSLRLSCAASGRTFSSYAMGWFRQAPGKEREFVAVISWSGGSTYYADSVKGRFTISGDNAKNTVYLQMNSLKPEDTAVYYCATEGPKWEPYNGIYSPADFGSWGQGTQVTVSS | 0.0045
4G12 (VHH) VHH: QLQLVESGGGLVQAGGSLRLSCVASGRSFSTYGMGWFRQAPGAEREFAAAINWKGDRYYADSVKGRFTISRDNAKNTVFLEMNSLKPEDTGVYYCAADSDGSAFSRRLEYDYWGQGTQVTVSS | 0.0019
